Measured Property: melting point (°C)
Dear colleague, please return just the value in °C, with no unit written.

For orientation, consider the following solved cases.
• Cn1c(=O)c2[nH]c(-c3ccc(COC(=O)Nc4ccccn4)cc3)cc2n(C)c1=O = 301
• Cn1c(=O)c2[nH]c(-c3ccc(COC(=O)Nc4ccco4)cc3)cc2n(C)c1=O = 278
• Cc1ccc(NC(=O)OCc2ccc(-c3cc4c([nH]3)c(=O)n(C)c(=O)n4C)cc2)nc1 = 293
• Cn1c(=O)c2[nH]c(-c3ccc(COC(=O)Nc4ccsc4)cc3)cc2n(C)c1=O = 280

Shift focus to the following entry.
Request the reported melting point associated with "Cn1c(=O)c2[nH]c(-c3ccc(COC(=O)Nc4cccs4)cc3)cc2n(C)c1=O"
287

* * *

- Experimental Target: UniProtKB P29274
- Sequence (P29274 whole entry): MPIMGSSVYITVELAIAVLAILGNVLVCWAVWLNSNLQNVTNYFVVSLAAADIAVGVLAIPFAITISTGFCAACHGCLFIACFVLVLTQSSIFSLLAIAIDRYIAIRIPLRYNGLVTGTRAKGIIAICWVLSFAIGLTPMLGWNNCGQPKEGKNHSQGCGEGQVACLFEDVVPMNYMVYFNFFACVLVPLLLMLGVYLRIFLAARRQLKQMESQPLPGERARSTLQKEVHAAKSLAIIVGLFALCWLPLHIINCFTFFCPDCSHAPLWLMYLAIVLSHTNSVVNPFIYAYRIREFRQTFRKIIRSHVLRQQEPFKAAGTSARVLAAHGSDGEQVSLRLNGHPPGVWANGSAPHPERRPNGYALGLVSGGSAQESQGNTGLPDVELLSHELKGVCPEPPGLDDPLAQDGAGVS
Measured Property: pIC50
Please report pIC50 as the negative decimal logarithm of the molar concentration, giving only the number.

Request the reported pIC50 associated with CCCn1c(=O)c2[nH]c(-c3ccc(OCC(=O)Nc4ccc(F)cc4)cc3)c(Br)c2n(CCC)c1=O [Example 138]
7.42
